# testDescription: Pharmacokinetic profile after intravenous and oral administration
# Type: in vivo
# runConditions: male, Sprague-Dawley, plasma; rat; IV 1 mg/kg, oral 5 mg/kg
readoutName: Vd (L/kg)
Report as a plain number; the unit L/kg is understood.

stdin: Find the recorded Vd belonging to `FC(F)(F)c1ccc(Nc2ncnc3c2CCN(c2ncccc2Cl)C3)cc1` and report it.
stdout: 1.28

stdin: Find the recorded Vd belonging to `N#Cc1nc2c(c(Nc3ccc(C(F)(F)F)cc3)n1)CCN(c1ncccc1Cl)C2` and report it.
stdout: 12.4

stdin: Find the recorded Vd belonging to `CS(=O)(=O)c1cccnc1N1CCc2c(ncnc2Nc2ccc(C(F)(F)F)cc2)C1` and report it.
stdout: 13

---

# testDescription: Plasma protein binding by equilibrium dialysis, rat plasma
# Assay type: in vitro ADME
# runConditions: pH 7.4, 37° C., read-out: plasma protein binding (% Bound)
readoutName: fraction unbound at 22 h, 10 μM

stdin: Find the recorded fraction unbound at 22 h, 10 μM belonging to `FC(F)(F)c1ccc(Nc2ncnc3c2CCN(c2ncccc2Cl)C3)cc1` and report it.
stdout: < 0.001

---

Entries and their pIC50 values follow.
# targetEntity: HsVR1 (Homo sapiens, UniProt Q8NER1)
# Sequence (Q8NER1 whole entry): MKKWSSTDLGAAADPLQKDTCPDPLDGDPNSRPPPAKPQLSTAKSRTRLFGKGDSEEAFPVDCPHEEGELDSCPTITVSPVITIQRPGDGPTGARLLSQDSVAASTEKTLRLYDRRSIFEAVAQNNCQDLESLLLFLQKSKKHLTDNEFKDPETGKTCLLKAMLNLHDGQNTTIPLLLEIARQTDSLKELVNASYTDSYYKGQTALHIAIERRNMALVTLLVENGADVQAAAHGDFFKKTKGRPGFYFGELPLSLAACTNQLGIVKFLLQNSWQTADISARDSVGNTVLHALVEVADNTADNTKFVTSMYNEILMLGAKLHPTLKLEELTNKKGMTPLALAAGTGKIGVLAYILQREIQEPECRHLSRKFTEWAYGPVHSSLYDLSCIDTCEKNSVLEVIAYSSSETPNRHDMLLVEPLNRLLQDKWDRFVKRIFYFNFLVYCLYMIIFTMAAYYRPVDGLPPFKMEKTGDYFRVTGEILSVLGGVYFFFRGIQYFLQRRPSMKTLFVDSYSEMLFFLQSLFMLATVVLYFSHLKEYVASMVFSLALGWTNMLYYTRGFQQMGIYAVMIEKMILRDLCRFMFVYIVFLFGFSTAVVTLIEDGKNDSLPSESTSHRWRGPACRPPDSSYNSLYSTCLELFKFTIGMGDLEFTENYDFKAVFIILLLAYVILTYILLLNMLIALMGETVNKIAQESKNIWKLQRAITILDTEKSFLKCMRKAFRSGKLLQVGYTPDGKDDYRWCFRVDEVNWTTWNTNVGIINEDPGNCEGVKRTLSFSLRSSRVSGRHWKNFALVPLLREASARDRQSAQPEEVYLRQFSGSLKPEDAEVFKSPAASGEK
# testDescription: Two-electrode voltage clamp recording of capsaicin induced VR1 current in Xenopus oocytes
# runConditions: 250 nM capsaicin induced current; Xenopus oocytes injected with HsVR1 RNA; read-out: EPHYS IC50
pIC50: −log10 of the molar value.

// known answers, use as guide
{"columns": ["compound", "targetEntity", "reportedMeasurement"],
 "data": [
  ["COCc1nc2c(c(Nc3ccc(C(F)(F)F)cc3)n1)CCN(c1ncccc1Cl)C2 [Example 35]", "HsVR1 (Homo sapiens, UniProt Q8NER1)", "6.30 to 7.00"],
  ["Clc1cccnc1N1CCc2c(ncnc2NCCc2ccccc2)C1 [Example 39]", "HsVR1 (Homo sapiens, UniProt Q8NER1)", "< 6.00"],
  ["N#Cc1nc2c(c(Nc3ccc(C(F)(F)F)cc3)n1)CCN(c1ncccc1Cl)C2 [Example 37]", "HsVR1 (Homo sapiens, UniProt Q8NER1)", "6.30 to 7.00"],
  ["Cc1cccc(N2CCc3c(ncnc3Nc3ccc(C(F)(F)F)cc3)C2)c1 [Example 46]", "HsVR1 (Homo sapiens, UniProt Q8NER1)", "6.00 to 6.30"]
]}

For the next question, use this compound.
stdin: Find the recorded pIC50 belonging to CSc1nc2c(c(Nc3ccc(C(C)(C)C)cc3)n1)CCN(c1ncccc1Cl)C2 [Example 28] and report it.
stdout: > 7.00

---

# targetEntity: UniProt Q8NER1
# testDescription: Two-electrode voltage clamp recording of capsaicin induced VR1 current in Xenopus oocytes
# runConditions: 250 nM capsaicin induced current; Xenopus oocytes injected with HsVR1 RNA; read-out: EPHYS IC50
pIC50: −log10 of the molar value.
readoutName: pIC50

{"columns": ["molecule", "reportedMeasurement"],
 "data": [
  ["FC(F)(F)c1ccc(Nc2ncnc3c2CCN(c2ncccc2C(F)(F)F)C3)cc1", "> 7.00"],
  ["Cc1ccccc1N1CCc2c(ncnc2Nc2ccc(C(F)(F)F)cc2)C1", "> 7.00"],
  ["CC(C)(C)c1ccc(Nc2ncnc3c2CCN(c2ncccc2Cl)C3)cc1.Cl [Example 3, hydrochloride]", "> 7.00"]
]}

For the next question, use this molecule.
stdin: Find the recorded pIC50 belonging to `CN(C)c1nc2c(c(Nc3ccc(C(F)(F)F)cc3)n1)CCN(c1ncccc1Cl)C2` and report it.
stdout: 6.00 to 6.30

---

# targetEntity: hVR1 (Homo sapiens)
# Sequence (Q8NER1 whole entry): as above
# testDescription: Calcium imaging assay (Fura2) of VR1 antagonists, proton stimulation
# runConditions: calcium ion influx induced by proton stimulation; HEK 293 cells expressing hVR1
readoutName: IC50

// known answers, use as guide
{"columns": ["compound", "reportedMeasurement"],
 "data": [
  ["CS(=O)(=O)c1cccnc1N1CCc2c(ncnc2Nc2ccc(C(F)(F)F)nc2)C1 [Example 21]", "101 to 500 nM"],
  ["CN(C)c1nc2c(c(Nc3ccc(C(F)(F)F)cc3)n1)CCN(c1ncccc1Cl)C2 [Example 34]", "101 to 500 nM"]
]}

stdin: Find the recorded IC50 belonging to FC(F)(F)Oc1ccc(Nc2ncnc3c2CCN(c2ncccc2Cl)C3)cc1 [Example 78] and report it.
stdout: < 100 nM

stdin: Find the recorded IC50 belonging to CSc1nc2c(c(Nc3ccc(C(F)(F)F)cc3)n1)CCN(c1ncccc1Cl)C2 [Example 24] and report it.
stdout: 101 to 500 nM

---

# targetEntity: HsVR1 (Homo sapiens)
# Construct: expressed in transfected cells; host or cells: Xenopus oocytes injected with HsVR1 RNA
# testDescription: Two-electrode voltage clamp recording of capsaicin induced VR1 current in Xenopus oocytes
# Format: cell-based
# runConditions: 250 nM capsaicin induced current; Xenopus oocytes injected with HsVR1 RNA; read-out: EPHYS IC50
Entries and their IC50 values follow.

// known answers, use as guide
{"columns": ["molecule", "readoutName", "reportedMeasurement"],
 "data": [
  ["FC(F)(F)c1ccc(Nc2ncnc3c2CCN(c2ncccc2Cl)C3)cc1", "IC50", "0.101 to 0.5 µM"],
  ["CC(C)(C)c1ccc(Nc2ncnc3c2CCN(c2ncccc2S(C)(=O)=O)C3)cc1", "IC50", "0.101 to 0.5 µM"]
]}

For the next question, use this molecule.
stdin: Find the recorded IC50 belonging to `COc1nc2c(c(Nc3ccc(C(C)(C)C)cc3)n1)CCN(c1ncccc1Cl)C2` and report it.
stdout: < 0.1 µM

---

Entries and their pIC50 values follow.
# targetEntity: hVR1 (Homo sapiens)
# testDescription: Calcium imaging assay (Fura2) of VR1 antagonists, proton stimulation
# runConditions: calcium ion influx induced by proton stimulation; HEK 293 cells expressing hVR1
pIC50: −log10 of the molar value.

// known answers, use as guide
{"columns": ["compound", "reportedMeasurement"],
 "data": [
  ["Cc1ccccc1N1CCc2c(ncnc2Nc2ccc(C(F)(F)F)cc2)C1 [Example 45]", "> 7.00"],
  ["FC(F)(F)Oc1ccc(Nc2ncnc3c2CCN(c2ncccc2C(F)(F)F)C3)cc1 [Example 79]", "> 7.00"],
  ["FC(F)(F)c1ccnc(N2CCc3c(ncnc3Nc3ccc4c(c3)OCCO4)C2)c1 [Example 71]", "< 6.00"],
  ["Clc1ccc(CNc2ncnc3c2CCN(c2ncccc2Cl)C3)cc1 [Example 41]", "6.30 to 7.00"],
  ["Cc1cccc(N2CCc3c(ncnc3Nc3ccc(C(F)(F)F)cc3)C2)c1 [Example 46]", "< 6.00"],
  ["Fc1ccc(Nc2ncnc3c2CCN(c2ncccc2Cl)C3)cc1 [Example 19]", "< 6.00"],
  ["O=S(=O)(c1ccc(Nc2ncnc3c2CCN(c2ncccc2C(F)(F)F)C3)cc1)C(F)(F)F [Example 76]", "> 7.00"],
  ["FC(F)Oc1ccc(Nc2ncnc3c2CCN(c2ncccc2C(F)(F)F)C3)cc1 [Example 77]", "6.30 to 7.00"]
]}

stdin: Find the recorded pIC50 belonging to CC1(C)CNc2cc(Nc3ncnc4c3CCN(c3ncccc3Cl)C4)ccc21 [Example 69] and report it.
stdout: 6.30 to 7.00

stdin: Find the recorded pIC50 belonging to Clc1ccc(CCNc2ncnc3c2CCN(c2ncccc2Cl)C3)cc1 [Example 40] and report it.
stdout: < 6.00

stdin: Find the recorded pIC50 belonging to COC(=O)COc1nc2c(c(Nc3ccc(C(F)(F)F)cc3)n1)CCN(c1ncccc1Cl)C2 [Example 66] and report it.
stdout: > 7.00

stdin: Find the recorded pIC50 belonging to Clc1cccnc1N1CCc2c(ncnc2NCCc2ccccc2)C1 [Example 39] and report it.
stdout: 6.30 to 7.00

stdin: Find the recorded pIC50 belonging to COc1cccc(Nc2ncnc3c2CCN(c2cc(C(F)(F)F)ccn2)C3)c1 [Example 72] and report it.
stdout: < 6.00

stdin: Find the recorded pIC50 belonging to CN1CC(C)(C)c2ccc(Nc3ncnc4c3CCN(c3ncccc3Cl)C4)cc21 [Example 70] and report it.
stdout: > 7.00

---

# targetEntity: hVR1 (Homo sapiens)
# testDescription: Calcium imaging assay (Fura2) of VR1 antagonists, proton stimulation
# runConditions: calcium ion influx induced by proton stimulation; HEK 293 cells expressing hVR1
readoutName: IC50

// known answers, use as guide
{"columns": ["smiles", "IC50"],
 "data": [
  ["FC(F)Oc1ccc(Nc2ncnc3c2CCN(c2ncccc2Cl)C3)cc1", "101 to 500 nM"],
  ["CS(=O)(=O)c1cccnc1N1CCc2c(ncnc2Nc2ccc(S(=O)(=O)C(F)(F)F)cc2)C1", "101 to 500 nM"],
  ["CCOc1nc2c(c(Nc3ccc(C(F)(F)F)cc3)n1)CCN(c1ncccc1S(C)(=O)=O)C2", "501 to 1000 nM"],
  ["COc1nc2c(c(Nc3ccc(C(C)(C)C)cc3)n1)CCN(c1ncccc1Cl)C2", "< 100 nM"],
  ["O=S(=O)(c1ccc(Nc2ncnc3c2CCN(c2ncccc2Cl)C3)cc1)C(F)(F)F", "< 100 nM"]
]}

stdin: Find the recorded IC50 belonging to `Clc1cccnc1N1CCc2c(ncnc2Nc2ccc3c(c2)OCCO3)C1` and report it.
stdout: > 1000 nM

stdin: Find the recorded IC50 belonging to `CSc1nc2c(c(Nc3ccc(C(C)(C)C)cc3)n1)CCN(c1ncccc1Cl)C2` and report it.
stdout: < 100 nM

stdin: Find the recorded IC50 belonging to `CCOc1nc2c(c(Nc3ccc(C(F)(F)F)cc3)n1)CCN(c1ncccc1Cl)C2` and report it.
stdout: 101 to 500 nM

stdin: Find the recorded IC50 belonging to `CN1CCOc2cc(Nc3ncnc4c3CCN(c3ncccc3Cl)C4)ccc21` and report it.
stdout: 101 to 500 nM

stdin: Find the recorded IC50 belonging to `FC(F)(F)c1ccc(Nc2ncnc3c2CCN(c2ccccc2)C3)cc1` and report it.
stdout: > 1000 nM

stdin: Find the recorded IC50 belonging to `c1ccc(CN2CCc3c(ncnc3Nc3cnc4ccccc4c3)C2)cc1` and report it.
stdout: 101 to 500 nM

stdin: Find the recorded IC50 belonging to `CC1(C)C(=O)Nc2cc(Nc3ncnc4c3CCN(c3ncccc3Cl)C4)ccc21` and report it.
stdout: > 1000 nM

stdin: Find the recorded IC50 belonging to `COc1nc2c(c(Nc3ccc(C(F)(F)F)cc3)n1)CCN(c1ncccc1Cl)C2` and report it.
stdout: 101 to 500 nM

stdin: Find the recorded IC50 belonging to `CC1(C)CCNc2cc(Nc3ncnc4c3CCN(c3ncccc3Cl)C4)ccc21` and report it.
stdout: 101 to 500 nM

stdin: Find the recorded IC50 belonging to `CC(=O)N1Cc2cc(Nc3ncnc4c3CCN(c3ncccc3Cl)C4)ccc2C(C)(C)C1` and report it.
stdout: > 1000 nM

stdin: Find the recorded IC50 belonging to `CC(C)(C#N)c1ccc(Nc2ncnc3c2CCN(c2ncccc2Cl)C3)cc1` and report it.
stdout: < 100 nM

stdin: Find the recorded IC50 belonging to `FC(F)(F)c1ccc(Nc2ncnc3c2CCN(c2ncccc2Cl)C3)cn1` and report it.
stdout: 101 to 500 nM

stdin: Find the recorded IC50 belonging to `Cc1ccc(N2CCc3c(ncnc3Nc3ccc(C(F)(F)F)cc3)C2)cc1` and report it.
stdout: 501 to 1000 nM
